All values here come from patent US10617674B2.

# study_system: p38a (Homo sapiens, UniProt Q16539)
# Sequence (Q16539 whole entry): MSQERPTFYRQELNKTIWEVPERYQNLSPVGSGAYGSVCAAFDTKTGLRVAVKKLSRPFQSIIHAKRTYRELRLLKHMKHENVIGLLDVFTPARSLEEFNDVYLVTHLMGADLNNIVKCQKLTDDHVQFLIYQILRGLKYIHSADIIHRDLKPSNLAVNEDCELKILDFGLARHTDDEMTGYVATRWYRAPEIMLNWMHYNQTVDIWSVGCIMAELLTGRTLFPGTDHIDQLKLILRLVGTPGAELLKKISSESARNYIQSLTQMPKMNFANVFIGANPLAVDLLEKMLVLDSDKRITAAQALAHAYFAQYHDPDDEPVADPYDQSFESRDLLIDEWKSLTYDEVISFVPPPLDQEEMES
result_type: Ki (nM)
Reply with just the number (in nM).

Q) Query: Ki; subject: Cc1ccc(C(=O)NC2CC2)cc1-n1ncc(C(=O)c2cccc(C#N)c2)c1N
A) 49

---

# assay: PK profile of the Day 1, 3 and 5 oral dosing regimen (drug levels)
# Assay type: in vivo, human
# condition_description: human, plasma, oral; based on the first dose
result_type: Cmax

Q) Query: Cmax; subject: Cc1ccc(C(=O)NC2CC2)cc1-n1ncc(C(=O)c2cccc(C#N)c2)c1N
A) ~2000 nM

---

# assay: Plasma protein binding, free fraction in human plasma samples
# Assay type: in vitro ADME
result_type: fraction unbound

Q) Query: fraction unbound; subject: Cc1ccc(C(=O)NC2CC2)cc1-n1ncc(C(=O)c2cccc(C#N)c2)c1N
A) 0.13 to 0.25
